As shown below, each of these molecules has a reported % Inh NPY5r 3 μM value.
Molecular target: human neuropeptide Y5 receptor (Homo sapiens)
Construct: expressed in transfected cells; host or cells: HEK-293 (human embryonic kidney cells), stably transfected, G-418 selected; membranes
Sequence (Q15761 1-445): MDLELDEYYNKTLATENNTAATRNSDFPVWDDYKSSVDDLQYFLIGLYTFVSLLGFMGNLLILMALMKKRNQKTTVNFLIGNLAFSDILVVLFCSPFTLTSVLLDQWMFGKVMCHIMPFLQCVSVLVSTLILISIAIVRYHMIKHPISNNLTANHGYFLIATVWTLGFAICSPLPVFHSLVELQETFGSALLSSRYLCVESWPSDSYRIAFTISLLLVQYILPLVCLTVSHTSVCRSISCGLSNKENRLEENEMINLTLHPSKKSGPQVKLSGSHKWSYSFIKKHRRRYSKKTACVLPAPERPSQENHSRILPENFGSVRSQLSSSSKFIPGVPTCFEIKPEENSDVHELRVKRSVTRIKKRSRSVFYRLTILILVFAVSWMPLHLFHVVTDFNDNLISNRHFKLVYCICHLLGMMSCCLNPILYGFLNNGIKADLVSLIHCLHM
Assay: NPY5 HTS centrifugation assay: competition with 125I-PYY for binding to membranes of NPY5-transfected HEK-293 cells
Settings: 3 μM compound; % inhibition of 125I-PYY binding
ENDPOINT_LABEL: % Inh NPY5r 3 μM (%)

# MOLECULE, ENDPOINT_LABEL, READOUT_NUMBER
data = [
    ("Cc1cc(C(=O)Nc2cccc(N)c2)nn1-c1cccc(C(F)(F)F)c1 [Compound 156]", "% Inh NPY5r 3 μM", 53),
    ("Cc1cc(C(=O)Nc2ccc(Cl)cc2)nn1-c1cccc(C(F)(F)F)c1 [Compound 9]", "% Inh NPY5r 3 μM", 48),
    ("COc1cc(NC(=O)c2cc(C)n(-c3cccc(C(F)(F)F)c3)n2)cc(OC)c1 [Compound 22]", "% Inh NPY5r 3 μM", 48),
    ("Cc1cc(C(=O)Nc2ccc(OC(F)(F)F)cc2)nn1-c1cccc(C(F)(F)F)c1 [Compound 24]", "% Inh NPY5r 3 μM", 5),
    ("COc1ccc(S(=O)(=O)Nc2cccc(NC(=O)c3cc(C)n(-c4cccc(C(F)(F)F)c4)n3)c2)cc1 [Compound 158]", "% Inh NPY5r 3 μM", 52),
    ("Cc1cc(C(=O)Nc2cc(Cl)cc(Cl)c2)nn1-c1ccc(C(F)(F)F)cc1 [Compound 65]", "% Inh NPY5r 3 μM", 49),
    ("Cc1cc(C(=O)Nc2ccc(F)cc2)nn1-c1cccc(F)c1 [Compound 137]", "% Inh NPY5r 3 μM", 44),
    ("Cc1cc(C(=O)Nc2c(F)cc(F)cc2F)nn1-c1cccc(C(F)(F)F)c1 [Compound 36]", "% Inh NPY5r 3 μM", 12),
]
